target: catalytic domain of human Bub1 (amino acids 704-1085) (Homo sapiens, UniProt O43683); construct: catalytic domain of human Bub1 (amino acids 704-1085); His6 (N); made in house; host or cells: Hi5 insect cells; test: Bub1 kinase assay (TR-FRET); type: biochemical
Sequence (O43683 704-1085): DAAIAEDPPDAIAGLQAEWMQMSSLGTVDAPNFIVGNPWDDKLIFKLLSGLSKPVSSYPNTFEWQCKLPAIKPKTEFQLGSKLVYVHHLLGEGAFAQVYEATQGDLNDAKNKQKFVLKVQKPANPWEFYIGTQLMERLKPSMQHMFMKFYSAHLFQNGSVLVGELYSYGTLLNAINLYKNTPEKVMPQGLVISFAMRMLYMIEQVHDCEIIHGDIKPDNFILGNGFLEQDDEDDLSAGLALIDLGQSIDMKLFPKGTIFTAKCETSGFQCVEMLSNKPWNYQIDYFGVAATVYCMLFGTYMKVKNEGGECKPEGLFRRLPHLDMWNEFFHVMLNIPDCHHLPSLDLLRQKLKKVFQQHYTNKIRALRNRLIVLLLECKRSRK
measure: IC50 (nM)

>>> df
                                     smiles  measure  endpointresult
0  CCOc1cc(F)c(Cn2nc(-c3ncc(OCCCCN4CC(F)C4)c(Nc4ccnc(C)n4)n3)c3ccccc32)c(F)c1     IC50              12
1  CCOc1cc(F)c(Cn2nc(-c3ncc(OCCCCN4CC(F)(F)C4)c(Nc4ccncc4Cl)n3)c3ccccc32)c(F)c1     IC50              19
2  CCOc1cc(F)c(Cn2nc(-c3ncc(OCCCCN4CC(F)(F)C4)c(Nc4ccnc(C)n4)n3)c3ccccc32)c(F)c1     IC50              34
3  CCOc1cc(F)c(Cn2nc(-c3ncc(OC[C@H](C)NCC(F)(F)F)c(Nc4ccnc(C)n4)n3)c3ccccc32)c(F)c1     IC50              11
4  CCOc1cc(F)c(Cn2nc(-c3ncc(OCCCCN4CCC(F)(F)CC4)c(Nc4cc(C)ncc4C)n3)c3ccccc32)c(F)c1     IC50             230

[1] CCOc1cc(F)c(Cn2nc(-c3ncc(OCCCCN4CCC(F)(F)CC4)c(Nc4ccnc(C)n4)n3)c3ccccc32)c(F)c1
[2] CCOc1cc(F)c(Cn2nc(-c3ncc(OCCCN4CCN(CC(F)(F)F)CC4)c(Nc4ccnc(NC(C)=O)c4)n3)c3ccccc32)c(F)c1
INPUT: Of 1 and 2 , whose reported IC50 is the larger number? Your answer should be the label of the entry you select.
OUTPUT: 1

Reference source: patent US20170275269A1
